Each record here notes measured Ki.
Biological target: DNA polymerase beta (Homo sapiens)
In your response, put the unit directly after the numeric value.

Known results for compounds:
line.notation: Nc1ncnc2c1ncn2[C@H]1C[C@H](O)[C@@H](COP(=O)(O)CP(=O)(O)OP(=O)(O)O)O1
target.desc: DNA polymerase beta (Homo sapiens)
Ki: 5000 nM

line.notation: Cc1cn([C@H]2C[C@H](O)[C@@H](COP(=O)(O)CP(=O)(O)OP(=O)(O)O)O2)c(=O)[nH]c1=O
target.desc: DNA polymerase beta (Homo sapiens)
Ki: 600 nM

line.notation: Nc1ccn([C@H]2C[C@H](O)[C@@H](COP(=O)(O)CP(=O)(O)OP(=O)(O)O)O2)c(=O)n1
target.desc: DNA polymerase beta (Homo sapiens)
Ki: 900 nM

Query: Data request, read-out Ki, for "Nc1nc2c(ncn2[C@H]2C[C@H](O)[C@@H](COP(=O)(O)CP(=O)(O)OP(=O)(O)O)O2)c(=O)[nH]1"
Result: 1000 nM
